Can you tell me Mean relative activity for the items I'm about to list?
Test system: K562 CRISPRi cells
run-description: Constant region variant library pooled growth screen, K562
Type: cell-based, human
study-conditions: sgRNA constant region variants; activity relative to the un-modified constant region cr995
Returns: the value as a bare number; no unit string appended.

Lookup: # get_value(readout='Mean relative activity', item= cr707 (nucleic acid, listed as DNA, chemistry not fully specified) guide: GTTTAAGAGCTAAGCTGGAAACAGCATAGCAAGTTTAAATAAGGCTAGTCCGTTATCAACTTGAAAAAGTGGCACCGTGTCGGTGCT )
Found: 0.9632

Lookup: # lookup: Mean relative activity of cr546 (nucleic acid, listed as DNA, chemistry not fully specified) guide: GTTTAAGAGCTAAGCTGGAAACAGCATAGCAAGTTTAAATAAGGCTAGTCCGTTATCAAATTGAGAAATTGGCACCGAGTCGGTGCT
Found: 0.9326

Lookup: Requested field: Mean relative activity. Item: cr597 (nucleic acid, listed as DNA, chemistry not fully specified) guide: GTTTAAGAGCTAAGCTGGAAACAGCATAGCAAGTTTAAATAAGGCTAGTCCGTTATCACCTTGAAAAAGGGGGACCTAGTAGGTCCT
Found: 0.9187

Lookup: For cr994 (nucleic acid, listed as DNA, chemistry not fully specified) guide: GTTTAAGAGCTAAGCTGGAAACAGCATAGCAAGTTTAAATAAGGCTAGTCCGTTATCAACTTGAAAAAGTGGCACCGATTCGGTGCT , what is its reported Mean relative activity?
Found: 0.9671

Lookup: Data request, read-out Mean relative activity, for cr361 (nucleic acid, listed as DNA, chemistry not fully specified) guide: GTTTAAGAGCTAAGCTCGAAACAGCATAGCAAGTTTAAATAAGGCTAGTCCGTTATCAACTTGAAAAAGTGGCACCGAGTCGGTGCT
Found: 0.9312

Lookup: Which Mean relative activity is reported for this molecule? cr416 (nucleic acid, listed as DNA, chemistry not fully specified) guide: GTTTAAGAGCTAAGCTGGAAACAGCATAGCAAGTTTAAATAAGGCTAGTCCGTTATCAACTTGAAAAAGTGGCGCCAAGTTGGCGCT
Found: 0.9574

Lookup: Data request, read-out Mean relative activity, for cr908 (nucleic acid, listed as DNA, chemistry not fully specified) guide: GTTTAAGAGCTAAGCTGGAAACAGCATAGCAAGTTTAAATAAGGCTAGTCCGTTATCAACTTGAGAAAGTGGCATCGAGTCGATGCT
Found: 0.9455

Lookup: Which Mean relative activity value belongs to cr253 (nucleic acid, listed as DNA, chemistry not fully specified) guide: GTTTAAGAGCTAAGCTGGAAACAGCATAGCAAGTTTAAATAAGGCTAGTCCGTTATCAGCCTGAAAAGGCGGCACCTAGTAGGTGCT ?
Found: 0.9384

Lookup: Entry cr910 (nucleic acid, listed as DNA, chemistry not fully specified) guide: GTTTAAGAGCTAAGCTGGAAACAGCATAGCAAGTTTAAATAAGGCTAGTCCGTTATCAACTTGAAAAAGTGGAACGGAGTCCGTTCT : reported Mean relative activity = ?
Found: 0.9171

Lookup: Mean relative activity for cr553 (nucleic acid, listed as DNA, chemistry not fully specified) guide: GTTTAAGAGCTAAGCTGGAAACAGCATAGCAAGTTTAAATAAGGCTGGTCCGTTATCAACTTGATAAAGTGGCACCGAGTCGGTGCT ?
Found: 0.9385
